- Test protocol: inhibition of PEG-3 promoter activity – cell-based, HeLa, luciferase luminescence, primary screen (AID 588405)
- Experimental setup: HeLa PEG-Prom luciferase reporter, overnight, at 20 µM
Hit rate of the full screen: of about 360,000 compounds, about 6,200 (1.7%) were called active.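 How the source made its calls: active means inhibition of at least 50% at 20 µM; inactive means the rest.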 This is one part of a sample in which actives are shown more often than they occur.
Labels: yes for active, no for inactive

Molecule	Category label
CCOc1cc(N2CCOCC2)c(OCC)cc1NC(=O)COc1cccc2cccnc12	yes
CCCCN(C=O)c1c(CC)nc2c(OCCC3CCCCC3)cccn12	no
CCC(=O)Nc1nc(C)c(C(=O)Nc2cccc(Cl)c2)s1	no
CCOc1cc(N2CCOCC2)c(OCC)cc1NC(=O)COC(=O)[C@H](Cc1c[nH]c2ccccc12)NC(C)=O	no
COc1ccc(NC(=O)C(C)SCc2ccccc2)cc1 (stereo unspecified)	no
CCOc1cc(N2CCOCC2)c(OCC)cc1NC(=O)c1ccc(C)s1	no

----------
- Test protocol: inhibition of PEG-3 promoter activity – cell-based, HeLa, luciferase luminescence, primary screen (AID 588405)
- Experimental setup: HeLa PEG-Prom luciferase reporter, overnight, at 20 µM, stronger effect = higher value
Hit rate of the full screen: of about 360,000 compounds, about 6,200 (1.7%) were called active. The entries come from a sample that favours actives as a whole.
Quantity: inhibition (%)

Compound	Reported value
NC1=CC(=O)C(=O)c2cccnc21	69.9
O=S1(=O)CC(N2CCC(Cc3ccccc3)CC2)CN1Cc1ccccc1 (stereo not given)	-15.6
Clc1ccc2nc(-c3ccccc3)nc(C(Cl)Cl)c2c1	107
C=C1C2C[C@H](O)C(C)(C)[C@@]2(O)[C@H](O)C[C@]23C[C@@](C)(O)[C@H](CC[C@H]12)[C@H]3O (stereo not given in full)	98.4
CC1CC(C)(C)n2c(O)c(N=NC(N)=S)c3cccc1c32 (stereo not given)	29.2
Cc1ccc(Cc2cnc(NC(=O)/C(C#N)=C/c3ccc(-c4cccc([N+](=O)[O-])c4)o3)s2)cc1	71.1
CN(C)C(CNC(=O)c1ccc(OCc2cn3ccccc3n2)cc1)c1ccco1 (stereo not given)	-55.3
CN(C)CCNC(=O)c1ccc(-c2cn3c(-c4ccc(Oc5ccccc5)cc4)cnc3cn2)cc1	99.7
CC1(C(=O)NCc2ccco2)Cc2c(-c3ccc4c(c3)OCO4)ccnc2O1 (stereo not given)	7.44
CCOc1ccc(CCN2C(=O)c3cccnc3C2=O)cc1OCC	-9.6

----------
Let's look at some compounds and their measured inhibition.
- Test protocol: inhibition of PEG-3 promoter activity – cell-based, HeLa, luciferase luminescence, primary screen (AID 588405)
- Experimental setup: HeLa PEG-Prom luciferase reporter, overnight, at 20 µM, stronger effect = higher value
In all, about 360,000 compounds went through this assay and about 6,200 (1.7%) were called active. What follows is part of a selection rich in actives, with near analogues and random picks from the rest.

Compound	inhibition
COc1ccc(OC)c(NC(=O)N[C@H](Cc2ccccc2)C(=O)NN)c1	9.08% (inactive)
c1ccc2c(c1)C(=NC1CCCCC1)NC2=NC1CCCCC1	101% (active)
C=C(C)Cn1c(N2CCCC2)nc2c1c(=O)[nH]c(=O)n2C	-3.39% (inactive)
Cc1cccc(/C(N)=N/OC(=O)c2ccccc2Cl)c1	-145% (inactive)
CC(C)NC(=O)Nc1ccc2c(c1)C(=O)N([C@H](C)CO)C[C@H](C)[C@@H](CN(C)Cc1ccc(C(F)(F)F)cc1)OCCCC[C@@H](C)O2	12.5% (inactive)
CC(=NNC(=S)N1CCCCCC1)c1ccccn1	-62.9% (inactive)
CC(C)(C)C(=O)NC(NC(=S)Nc1ccc(S(N)(=O)=O)cc1)C(Cl)(Cl)Cl (stereo unspecified)	17% (inactive)
COc1cccc(-c2cc3nc(NCc4ccccc4OC)n(C)c(=O)c3s2)c1	-50% (inactive)
CCOC(=O)c1ccc(-c2ccc3ncnc(N(C)Cc4sccc4C)c3c2)o1	31.1% (inactive)
COc1ccccc1Cc1c(-c2ccc(Cl)cc2)nc2ccc(Cl)cn12	-200% (inactive)
CCOc1ccc(C(CCc2ccccc2)NC(=O)c2ccc(OC)c(OC)c2)cc1OCC (stereo unspecified)	11.6% (inactive)
Cc1nc(C(F)(F)F)ccc1C(=O)N1CCC1(C)C(=O)NS(=O)(=O)c1ccc(F)cc1F (stereo unspecified)	-1.89% (inactive)
CC(C)(C)CC(=O)Nc1nnc(SCC(=O)NCc2cccs2)s1	9.91% (inactive)
Cc1ccc(NC(=O)[C@H](Cc2ccccc2)NC(=O)CC[C@H]2O[C@@H](n3ccc(=O)[nH]c3=O)[C@H](O)[C@@H]2O)cc1C	4.14% (inactive)
CC1(C(=O)Nc2ccccc2Br)CCN1C(=O)CC1CC1 (stereo unspecified)	3.67% (inactive)
C=CCn1c(COc2cccc3cccnc23)nnc1SCC(=O)OC	16.7% (inactive)
O=C(NC(Nc1nc2ccc([N+](=O)[O-])cc2s1)(C(F)(F)F)C(F)(F)F)c1ccccc1	68.7% (active)
Cc1csc2ncc(C(=O)N(Cc3ccccc3)c3ccccn3)c(=O)n12	81.4% (active)
CCCCc1ccc(S(=O)(=O)NC(=O)C2(C)CCN2C(=O)c2ccccc2)cc1 (stereo unspecified)	0.57% (inactive)
O=[N+]([O-])c1cc(S(=O)(=O)Nc2cccc(Cl)c2)ccc1N=Nc1c(O)[nH]c2ccccc12	65.1% (active)
O=c1cc(CN2CCCCCCC2)c2c(ccc3ccccc32)o1	9.42% (inactive)
O=C1C=C(c2ccc(Cl)cc2)C(=O)N1Nc1ccccc1	105% (active)
CCOC1=C2[C@@H](CN(S(=O)(=O)c3ccc(C)cc3)[C@H]2c2ccccc2F)[C@H]2C(=O)N(Cc3ccccc3)C(=O)[C@H]2C1	6.76% (inactive)
CC1CCN(c2nc3c(c(=O)[nH]c(=O)n3C)n2CCCc2ccccc2)CC1	-2.12% (inactive)
O=C(O)c1cc([N+](=O)[O-])c(Nc2cccc3ccccc23)c([N+](=O)[O-])c1	5.86% (inactive)
O=c1[nH]c(=S)[nH]c(O)c1/C=C1\C=Nc2ccccc21	60.8% (active)
Cc1ccc2c(C(=O)CN3CCCC3)c(C)[nH]c2c1	7.2% (inactive)
CC(Nc1ccc([N+](=O)[O-])cc1[N+](=O)[O-])c1ccccc1 (stereo unspecified)	31.3% (inactive)
N/C(=N\OC(=O)c1ccc([N+](=O)[O-])cc1)c1ccccn1	5.67% (inactive)
C=C(C)C(=O)O[C@H]1C/C(C)=C\C(=O)/C=C(\C)[C@H](O)[C@@H]2OC(=O)C(=C)[C@@H]21	94.4% (active)
CCCCNC(=O)c1nc(C2CCN(S(=O)(=O)c3ccc(F)c(F)c3)CC2)oc1-c1cccc(C(F)(F)F)c1	13.3% (inactive)
CSc1ccc(CN2CCC2(C)C(=O)Nc2ccc(C)c(O)c2)cc1 (stereo unspecified)	-4.73% (inactive)
C/C(=N\NC(=O)Cc1ccc(Cl)cc1)c1ccccn1	104% (active)
Cc1ccc(C(=O)O/N=C(\N)c2ccccn2)cc1Cl	62.4% (active)
O=C(NC1CCCC1)C(c1c(F)cccc1Cl)N(C(=O)c1csnn1)C1CC1 (stereo unspecified)	16.7% (inactive)
N/C(=N/O)c1cccn1Cc1ccccc1[N+](=O)[O-]	3.69% (inactive)
COc1ccc(NC(=O)C(Br)C(C)C)cc1 (stereo unspecified)	-6.38% (inactive)
CC1(C(=O)NCc2ccc3c(c2)OCO3)CCN1CCc1ccccc1 (stereo unspecified)	-5.32% (inactive)
Cc1csc(NC(=O)CSc2nc(=O)n(CCCN(C)C)c3c2CCC3)n1	4.74% (inactive)
COc1ccc(-c2ccc(C(=O)NC(C)C)c3occc23)c(C)c1	-11.5% (inactive)
CN1CCN(C2Cc3ccc(Cl)cc3Sc3ccc(F)cc32)CC1 (stereo unspecified)	76% (active)
